- System: DLD1
- Method Description: cell viability (CellTiter-Glo) relative to plate median (fraction of plate median); higher = more viable cells
- Details: 5 µM; treatment time 24 h; reporter: 7TFP

Molecule	cell viability
CCCCc1nc(Cl)c(CO)n1Cc1ccc(-c2ccccc2-c2nnn[nH]2)cc1	0.909
CC(=O)Oc1cc(C)c2c(c1C(OC(C)=O)OC(C)=O)Oc1c(c(C)c(OC(C)=O)c3c1C(OC(C)=O)OC3=O)OC2=O (stereo not given)	0.969
CN(C)[C@@H]1C(O)=C(C(N)=O)C(=O)[C@@]2(O)C(O)=C3C(=O)c4c(O)ccc(Cl)c4[C@@H](O)[C@H]3C[C@@H]12	0.943
CC(C)c1c(O)ccc2c1CCC1[C@@](C)(C=O)CCC[C@]21C (stereo not given in full)	1.03
CN(C)CCOC(c1ccccc1)c1ccccc1	1.04
N[C@@H](C(=O)O)[C@@H](O)[C@H](O)[C@H](O)CO	0.989
C#C[C@]1(O)CC[C@H]2[C@@H]3CCc4cc(O)ccc4[C@H]3CC[C@@]21C	0.934
C=C1[C@@H]([C@@]2(C)C=CC(=O)C(C)(C)[C@@H]2CC(=O)OC)CC[C@@]2(C)[C@H](c3ccoc3)OC(=O)[C@H]3O[C@]132	0.94
COc1ccc2c(c1)OCc1c-2oc2cc(OC)ccc12	1.05
CCCSc1ccc2[nH]c(NC(=O)OC)nc2c1	0.966

---

- Test system: DLD1
- Method Description: cell viability (CellTiter-Glo) relative to plate median (fraction of plate median); higher = more viable cells
- Details: 5 µM; treatment time 24 h; reporter: 7TFP
Known cell viability of a selection of molecules

Molecule	cell viability
CCC(C)C(NC)C(=O)O (centres undefined)	0.959
NCCC(=O)c1ccccc1N	1.03
O=C(O)[C@H](O)[C@@](O)(Cc1ccc(O)cc1)C(=O)O	0.954
Clc1ccc(CO/N=C(\Cn2ccnc2)c2ccc(Cl)cc2Cl)c(Cl)c1	0.987
COC1=CC(=O)C(C(=O)c2ccccc2)=CC1=O	0.965
CC1(C)O[C@@H]2C[C@H]3[C@@H]4CCC5=CC(=O)C=C[C@]5(C)[C@H]4[C@@H](O)C[C@]3(C)[C@]2(C(=O)CO)O1	0.999
Nc1ccc(C(=O)Oc2ccccc2)c(O)c1	1.05
CCCCC(CC)CN=C(N)N=C(N)NCCCCCCNC(N)=NC(N)=NCC(CC)CCCC (centres undefined)	0.971
C[C@H]1[C@H]2CC[C@H]3[C@@H]4CC=C5C[C@@H](N(C)C)CC[C@]5(C)[C@H]4CC[C@]23CN1C	0.896

---

- Test system: DLD1
- Method Description: TCF/Wnt firefly luciferase reporter signal relative to plate median (fraction of plate median); higher = higher Wnt reporter signal
- Details: 5 µM; treatment time 24 h; reporter: 7TFP
Reported Property: TCF/Wnt firefly luciferase reporter signal

Compound	Reported Measurement
COc1ccc(-c2cc(=O)c3ccccc3o2)cc1OC	0.906
CC(=O)Nc1nnc(S(N)(=O)=O)s1	0.865
CC(=O)O[C@@H]1CC2C(C)(C)C(=O)CC[C@]2(C)C2CC[C@]3(C)C(=CC(=O)O[C@H]3c3ccoc3)[C@@]21C (some centres undefined)	1.06
COc1cc2c(cc1OC)C(=O)C(CC1CCN(Cc3ccccc3)CC1)C2 (centres undefined)	1.12
